measure name: melting point

Recorded results for 5 compounds are shown here.
{"compound": "CCS(=O)c1ccc(-c2coc3ccc(-c4nnc(C)o4)cc23)cc1F (stereo unspecified)", "melting point": "187 to 188 °C"}
{"compound": "N#CCCn1nc(-c2ccccc2)ccc1=O", "melting point": "103 to 104 °C"}
{"compound": "O=C(O)CCc1c[nH]c2c(C(=O)c3ccccc3)cccc12", "melting point": "166 °C"}
{"compound": "O=S1CCN(c2nc(Cl)nc3c(Cl)ncnc23)CC1", "melting point": "195 to 198 °C"}
{"compound": "NC(=O)CCCCC1CCCCC1", "melting point": "121 to 122 °C"}

Now turn to the next compound.
Data request: Give melting point for O=C(O)c1ccccc1CCc1cccc(Br)c1
Data returned: 88 to 90 °C
